# tested-target: Insulin amyloid aggregates
# test-method-notes: Competition assay with Thioflavin T (ThT) for binding to insulin amyloid aggregates, fluorescence 96-well plate
# measurement-context: 0.5 μM ThT, 2 μg per well fibrils, 25 mM sodium phosphate pH 6.0, room temperature
pIC50: −log10 of the molar value.

| mol | tested-target | pIC50 |
| --- | --- | --- |
| CN(C)c1ccc(/N=N/c2nc3c(ccc4ccccc43)s2)c2ccccc12 | Insulin amyloid aggregates | 4.80 |
| CN(C)c1ccc(/C=C/c2sc3ccc4ccccc4c3[n+]2C)c2ccccc12 | Insulin amyloid aggregates | 7.38 |
| CN(C)c1ccc(/N=N/c2nc3ccc(Cl)cc3s2)cc1 | Insulin amyloid aggregates | 5.89 |

---

IC50 for assorted compounds
# tested-target: Insulin amyloid aggregates
# test-method-notes: Competition assay with Thioflavin T (ThT) for binding to insulin amyloid aggregates, fluorescence 96-well plate
# measurement-context: 0.5 μM ThT, 2 μg per well fibrils, 25 mM sodium phosphate pH 6.0, room temperature

| mol | unit-annotation | IC50 |
| --- | --- | --- |
| CN(C)c1ccc(/C=C/c2sc3ccccc3[n+]2CCCc2ccccc2)cc1 | nM | 210 |
| CN(C)c1ccc(/C=C/c2sc3ccc(F)cc3[n+]2Cc2ccccc2)cc1 | nM | 32 |
| CN(C)c1ccc(/C=C/c2sc3cc4ccccc4cc3[n+]2C)cc1 | nM | 120 |
| CN(C)c1ccc(/C=C/c2sc3ccc(Cl)cc3[n+]2C)cc1 | nM | 5.2 |

---

IC50 for assorted compounds
# tested-target: βA(1-40) amyloid aggregates (Homo sapiens)
# Construct: lyophilized β(1-40) protein powder (which may be purchased from BACHEM); purchased BACHEM
# Sequence (P05067 672-711 limits assumed): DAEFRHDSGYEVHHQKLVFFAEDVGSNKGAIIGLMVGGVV
# test-method-notes: Competition assay with Thioflavin T (ThT) for binding to β(1-40) amyloid aggregates, fluorescence 96-well plate
# measurement-context: 20 μM ThT, 5 μg/well fibrils, 25 mM sodium phosphate pH 6.0, room temperature; read-out: βA(1-40), IC50

| mol | unit-annotation | qualifier-sign | IC50 |
| --- | --- | --- | --- |
| CN(C)c1ccc(/C=C/c2nc3cc(Cl)ccc3s2)cc1 | nM | > | 100000 |
| CN(C)c1ccc(/C=C/c2nc3ccc(N(C)C)cc3s2)cc1 | nM | > | 100000 |
| CCCCCCC[n+]1c(/C=C/c2ccc(N(C)C)cc2)sc2cc(OC)ccc21 | nM | = | 140 |
| CCCCCCC[n+]1c(/C=C/c2ccc(N(CC)CC)cc2)sc2ccccc21 | nM | = | 140 |
| CN(C)c1ccc(/C=C/c2nc3ccccc3s2)cc1 | nM | > | 100000 |
| CN(C)c1ccc(/N=N/c2nc3ccccc3s2)cc1 | nM | = | 22000 |
| CCn1c(/C=C/c2ccc(N(C)C)cc2)[s+]c2ccc3ccccc3c21 | nM | = | 210 |
| CN(C)c1ccc(/C=C/c2sc3cc([N+](=O)[O-])ccc3[n+]2C)cc1 | nM | = | 1000 |
| CN(C)c1ccc(/C=C/c2sc3ccccc3[n+]2CCCCCOc2ccccc2)cc1 | nM | = | 170 |
| Cc1ccc2c(c1)sc(/C=C/c1ccc(N(C)C)cc1)[n+]2C | nM | = | 180 |
| COc1ccc2nc(/N=N/c3ccc(N(C)C)cc3)sc2c1 | nM | = | 3200 |
| CN(C)c1ccc(N=Nc2sc3ccccc3[n+]2C)cc1 | nM | = | 1300 |
| CCCCCCC[n+]1c(/C=C/c2ccc(N3CCCC3)cc2)sc2ccccc21 | nM | = | 160 |
| COc1ccc2c(c1)sc(/C=C/c1ccc(N(C)C)cc1)[n+]2C | nM | = | 300 |
| CN(C)c1ccc(/C=C/c2sc3ccccc3[n+]2CCCCCc2ccccc2)cc1 | nM | = | 170 |

Taken from patent US6001331A.
